# assay name: Steady state pharmacokinetics in patients following multiple oral doses
# Assay type: in vivo
# study conditions: human, plasma, multiple oral doses of 400 mg once daily
Catalogue of Tmax readings, one per entry.
metric: Tmax (h)

CC1(C)CCC(CN2CCN(c3ccc(C(=O)NS(=O)(=O)c4ccc(NCC5CCOCC5)c([N+](=O)[O-])c4)c(Oc4cnc5[nH]ccc5c4)c3)CC2)=C(c2ccc(Cl)cc2)C1 [Compound Z, Venetoclax, reference compound] :: 7
O=C(NS(=O)(=O)c1ccc(NC[C@H]2COCCO2)c([N+](=O)[O-])c1)c1ccc(N2CCN(CC3=C(c4ccc(Cl)cc4)CC4(CCC4)CC3)CC2)cc1Oc1cnc2[nH]ccc2c1 :: 6

* * *

# assay name: Steady state pharmacokinetics in patients following multiple oral doses
# Format: in vivo
# study conditions: human, plasma, multiple oral doses of 400 mg once daily
metric: Cmax (ng/mL)

O=C(NS(=O)(=O)c1ccc(NC[C@H]2COCCO2)c([N+](=O)[O-])c1)c1ccc(N2CCN(CC3=C(c4ccc(Cl)cc4)CC4(CCC4)CC3)CC2)cc1Oc1cnc2[nH]ccc2c1 :: 970
CC1(C)CCC(CN2CCN(c3ccc(C(=O)NS(=O)(=O)c4ccc(NCC5CCOCC5)c([N+](=O)[O-])c4)c(Oc4cnc5[nH]ccc5c4)c3)CC2)=C(c2ccc(Cl)cc2)C1 [Compound Z, Venetoclax, reference compound] :: 2180

* * *

# assay name: Steady state pharmacokinetics in patients following multiple oral doses
# Assay type: in vivo
# study conditions: human, plasma, multiple oral doses of 400 mg once daily, read-out: AUC(0-24 h)
metric: AUC(0-t) (ng·h/mL)

O=C(NS(=O)(=O)c1ccc(NC[C@H]2COCCO2)c([N+](=O)[O-])c1)c1ccc(N2CCN(CC3=C(c4ccc(Cl)cc4)CC4(CCC4)CC3)CC2)cc1Oc1cnc2[nH]ccc2c1 [Compound 1] :: 9960
CC1(C)CCC(CN2CCN(c3ccc(C(=O)NS(=O)(=O)c4ccc(NCC5CCOCC5)c([N+](=O)[O-])c4)c(Oc4cnc5[nH]ccc5c4)c3)CC2)=C(c2ccc(Cl)cc2)C1 [Compound Z, Venetoclax, reference compound] :: 35500

* * *

Below, each entry is listed with its recorded half-life.
# assay name: Steady state pharmacokinetics in patients following multiple oral doses
# Assay type: in vivo
# study conditions: human, plasma, multiple oral doses of 400 mg once daily, read-out: T½ (converted)
metric: half-life (h)

O=C(NS(=O)(=O)c1ccc(NC[C@H]2COCCO2)c([N+](=O)[O-])c1)c1ccc(N2CCN(CC3=C(c4ccc(Cl)cc4)CC4(CCC4)CC3)CC2)cc1Oc1cnc2[nH]ccc2c1 :: 4.43
CC1(C)CCC(CN2CCN(c3ccc(C(=O)NS(=O)(=O)c4ccc(NCC5CCOCC5)c([N+](=O)[O-])c4)c(Oc4cnc5[nH]ccc5c4)c3)CC2)=C(c2ccc(Cl)cc2)C1 [Compound Z, Venetoclax, reference compound] :: 26

The measurements presented in this section are drawn from patent US12343352B2.
